Each recorded value in this set is attributed to patent US11046658B2.

- measured on: PI3Kδ (p110δ/p85α) Recombinant Human Protein (Homo sapiens (Human))
- experiment notes: PI3Kδ Scintillation Proximity Assay
- Assay type: biochemical
- condition description: Table A2; 2 μM ATP, 20 μM PIP2
Where a name gives a salt, the structure may show the parent alone.
readout: IC50

compound: Cc1ccc(C(O)(C(N)=O)C(F)(F)F)cc1-c1cnc(N)c(C(F)(F)F)n1 (stereo not drawn) [Example 46, trifluoroacetate]
IC50: < 500 nM

compound: C/C=C\c1nc(-c2cc(C(O)(C(N)=O)C(F)(F)F)ccc2C)cnc1N (stereo not drawn)
IC50: < 500 nM

Here is the next item to consider.
Which IC50 value belongs to CCCc1nc(-c2cc(C(O)(C(N)=O)C(F)(F)F)ccc2C)cnc1N (stereo not drawn) ?
< 500 nM

====

- measured on: PI3Kδ (p110δ/p85α) Recombinant Human Protein (Homo sapiens (Human), UniProt O00329)
- Sequence (O00329 whole entry): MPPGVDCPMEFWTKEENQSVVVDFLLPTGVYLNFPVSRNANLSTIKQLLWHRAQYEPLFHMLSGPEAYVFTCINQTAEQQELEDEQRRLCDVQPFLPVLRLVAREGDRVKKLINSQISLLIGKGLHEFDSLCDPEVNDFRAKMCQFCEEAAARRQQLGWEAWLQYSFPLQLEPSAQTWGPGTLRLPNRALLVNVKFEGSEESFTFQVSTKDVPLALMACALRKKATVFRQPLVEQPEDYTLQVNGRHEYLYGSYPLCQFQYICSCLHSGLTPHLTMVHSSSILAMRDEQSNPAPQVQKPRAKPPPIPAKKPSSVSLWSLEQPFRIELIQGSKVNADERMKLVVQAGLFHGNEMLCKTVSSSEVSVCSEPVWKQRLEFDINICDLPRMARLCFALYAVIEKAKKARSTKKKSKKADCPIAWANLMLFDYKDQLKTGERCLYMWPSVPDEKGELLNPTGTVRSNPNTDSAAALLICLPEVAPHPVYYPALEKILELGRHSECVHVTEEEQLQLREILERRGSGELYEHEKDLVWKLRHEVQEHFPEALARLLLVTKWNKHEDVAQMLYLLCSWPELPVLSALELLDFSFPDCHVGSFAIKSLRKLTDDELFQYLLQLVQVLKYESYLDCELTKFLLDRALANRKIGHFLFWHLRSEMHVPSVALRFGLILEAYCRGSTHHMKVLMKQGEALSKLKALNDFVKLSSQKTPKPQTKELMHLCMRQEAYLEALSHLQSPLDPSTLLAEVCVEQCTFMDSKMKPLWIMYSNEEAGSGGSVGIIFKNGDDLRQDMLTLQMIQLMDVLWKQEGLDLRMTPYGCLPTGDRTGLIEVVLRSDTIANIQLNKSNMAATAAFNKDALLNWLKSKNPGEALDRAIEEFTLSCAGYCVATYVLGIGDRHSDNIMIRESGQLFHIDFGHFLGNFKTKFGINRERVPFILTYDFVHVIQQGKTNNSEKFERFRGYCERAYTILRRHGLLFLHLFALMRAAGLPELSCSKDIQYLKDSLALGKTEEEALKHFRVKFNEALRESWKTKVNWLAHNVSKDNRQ
- Sequence (P27986 whole entry partner): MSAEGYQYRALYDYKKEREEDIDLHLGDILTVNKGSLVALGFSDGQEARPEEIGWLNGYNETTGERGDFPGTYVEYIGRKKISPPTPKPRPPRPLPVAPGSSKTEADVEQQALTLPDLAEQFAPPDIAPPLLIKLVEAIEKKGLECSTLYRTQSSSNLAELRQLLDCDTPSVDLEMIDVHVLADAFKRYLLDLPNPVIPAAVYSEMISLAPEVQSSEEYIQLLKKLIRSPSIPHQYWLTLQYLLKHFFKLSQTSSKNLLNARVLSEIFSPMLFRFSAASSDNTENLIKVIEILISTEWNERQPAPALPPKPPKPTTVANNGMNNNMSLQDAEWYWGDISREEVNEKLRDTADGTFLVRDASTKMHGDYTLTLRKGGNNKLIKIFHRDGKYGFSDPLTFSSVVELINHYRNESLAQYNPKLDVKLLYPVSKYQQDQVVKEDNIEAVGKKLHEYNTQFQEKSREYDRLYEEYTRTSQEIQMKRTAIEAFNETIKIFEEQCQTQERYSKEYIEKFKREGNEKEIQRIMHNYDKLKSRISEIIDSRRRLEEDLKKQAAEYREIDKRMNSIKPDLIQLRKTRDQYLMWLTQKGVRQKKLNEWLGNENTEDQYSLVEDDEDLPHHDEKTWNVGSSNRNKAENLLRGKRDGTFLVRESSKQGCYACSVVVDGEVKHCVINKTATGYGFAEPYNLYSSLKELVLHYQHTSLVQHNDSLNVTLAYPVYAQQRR
- experiment notes: PI3Kδ Scintillation Proximity Assay
- Type: biochemical
- condition description: Table A4; 2 μM ATP, 20 μM PIP2
Where a name gives a salt, the structure may show the parent alone.
IC50 reference

compound: Cc1ccc(C(O)(C(N)=O)C(F)(F)F)cc1-c1cnc(N)c(N2CCN(c3cccc(C(F)(F)F)c3)CC2)n1 (stereo not drawn) [Example 121, trifluoroacetate]
IC50: < 500 nM
//
compound: Cc1ccc(C(O)(C(N)=O)C(F)(F)F)cc1-c1cnc(N)c(N2CCN(C(C)(C)C)C(=O)C2)n1 (stereo not drawn) [Example 113, trifluoroacetate]
IC50: < 500 nM
//
compound: CCOC(=O)C1CC(c2nc(-c3cc(C(O)(C(N)=O)C(F)(F)F)ccc3C)cnc2N)C1 (single isomer, unassigned) [Example 108]
IC50: < 2000 nM
//
compound: Cc1ccc(C(O)(C(N)=O)C(F)(F)F)cc1-c1cnc(N)c(N2CC(=O)N(c3ccc(O)cc3)[C@@H](CO)C2)n1 (stereo partly drawn) [Example 124, trifluoroacetate]
IC50: < 500 nM
//
compound: Cc1ccc(C)c(N2CCN(c3nc(-c4cc(C(O)(C(N)=O)C(F)(F)F)ccc4C)cnc3N)CC2)c1 (stereo not drawn) [Example 119, trifluoroacetate]
IC50: < 500 nM

Name the reported IC50 value associated with the compound CCOC(=O)C1CC(c2nc(-c3cc(C(O)(C(N)=O)C(F)(F)F)ccc3C)cnc2N)C1 (single isomer, unassigned) [Example 109]
< 500 nM

Also Cc1ccc(C(O)(C(N)=O)C(F)(F)F)cc1-c1cnc(N)c(N2CCN(c3ccccc3)CC2)n1 (stereo not drawn) [Example 116, trifluoroacetate] ?
< 500 nM

Also, Cc1ccc(C(O)(C(N)=O)C(F)(F)F)cc1-c1cnc(N)c(C2CC(C(=O)NC(C)C)C2)n1 (single isomer, unassigned) [Example 110] please.
< 500 nM

Item: Cc1ccc(C(O)(C(N)=O)C(F)(F)F)cc1-c1cnc(N)c(C2CN(S(=O)(=O)c3cnn(C)c3)C2)n1 (single isomer, unassigned) [Example 107, trifluoroacetate salt]
< 2000 nM

====

- measured on: PI3Kδ (p110δ/p85α) Recombinant Human Protein (Homo sapiens (Human), UniProt O00329)
- experiment notes: PI3Kδ Scintillation Proximity Assay
- Assay type: biochemical
- condition description: Table A1; 2 μM ATP, 20 μM PIP2
Where a name gives a salt, the structure may show the parent alone.
readout: IC50

compound: Cc1ccc(C(O)(C(N)=O)C(F)(F)F)cc1-c1cnc(N)c(C(=O)N2CCc3cccnc32)n1 (centres unmarked)
readout: IC50
reading: < 500 nM

Quick check: IC50 of Cc1ccc(C(O)(CNC(=O)C(C)(C)O)C(F)(F)F)cc1-c1cnc(N)c(C(=O)NC(C)C)n1 (centres unmarked) [Example 41, trifluoroacetate] ?
< 500 nM
